- Tested on: MRSA USA300
- Protocol Text: MIC by broth microdilution (CLSI) against MRSA USA300
- Type: cell-based, Staphylococcus aureus
- Particulars: Staphylococcus aureus; broth microdilution, CAMHB, 37° C., 18-20 hours; read-out: MRSA USA300 MIC
Measured Quantity: MIC (µg/mL)
Give bare numbers, in µg/mL.

>  <Compound>
CCCCSc1ccc(/C(C)=N/NC(=N)N)cc1 [Example compound of formula 69]

>  <Experimental System>
MRSA USA300

>  <MIC [µg/mL]>
8

$$$$
>  <Compound>
CCCCCSc1ccc(/C(C)=N/NC(=N)N)cc1 [Example compound of formula 71]

>  <Experimental System>
MRSA USA300

>  <MIC [µg/mL]>
8

$$$$
>  <Compound>
C/C(=N\NC(=N)N)c1ccc(SC2CCCC2)cc1 [Example compound of formula 79]

>  <Experimental System>
MRSA USA300

>  <MIC [µg/mL]>
8

$$$$
>  <Compound>
C/C(=N\NC(=N)N)c1ccc(SCCC(C)C)cc1 [Example compound of formula 77]

>  <Experimental System>
MRSA USA300

>  <MIC [µg/mL]>
4

$$$$
>  <Compound>
C/C(=N\NC(=N)N)c1ccc(SCCc2ccccc2)cc1 [Example compound of formula 84]

>  <Experimental System>
MRSA USA300

>  <MIC [µg/mL]>
2

$$$$
>  <Compound>
C/C(=N\NC(=N)N)c1ccc(SC2CCCCC2)cc1 [Example compound of formula 80]

>  <Experimental System>
MRSA USA300

>  <MIC [µg/mL]>
4

$$$$
>  <Compound>
C/C(=N\NC(=N)N)c1ccc(SCC(C)C)cc1 [Example compound of formula 76]

>  <Experimental System>
MRSA USA300

>  <MIC [µg/mL]>
8

$$$$

*Q* Answer with the recorded MIC of C/C(=N\NC(=N)N)c1ccc(SCC2CCC2)cc1 [Example compound of formula 81] only.
*A* 8
